System: Escherichia coli
assay_explanation: Ratio of IC50 for Escherichia coli RNA polymerase core enzyme to IC50 for Escherichia coli RNA polymerase holo enzyme
This listing pairs molecules with measured Ratio IC50.
The response must contain the number and no unit.

Below, 2 molecules whose answers are already recorded.
test_smiles	reported_value
C=CCN1C(=O)/C(=C/c2ccc(-c3cccc(C(=O)O)c3)o2)SC1=S	2.6
O=C(Nc1ccc(-c2ccccc2)cc1C(=O)O)c1cccc(Oc2ccccc2)c1	2.8

Now for another entry.
Provide the reported Ratio IC50 (system: Escherichia coli) for O=C(Nc1ccc(C(F)(F)F)cc1C(=O)O)c1ccc(-c2ccccc2)cc1 4

====

assay_explanation: Inhibition of Escherichia coli RNA polymerase core enzyme by transcription assay
// reported pIC50 for each item listed
Bear in mind: pIC50 is minus log10 of a mol/L concentration; give just that figure.

Sample records with pIC50:
molecule	pIC50
CCCN(CCC)S(=O)(=O)c1ccc(C(=O)Nc2cc3ccccc3cc2C(=O)O)cc1	4.09
CO[C@H]1/C=C/O[C@@]2(C)Oc3c(C)c(O)c4c(O)c(c(/C=N/N5CCN(C)CC5)c(O)c4c3C2=O)NC(=O)/C(C)=C\C=C\[C@H](C)[C@H](O)[C@@H](C)[C@@H](O)[C@@H](C)[C@H](OC(C)=O)[C@@H]1C [RIFAMPIN]	7.80
O=C(Nc1cc(Cl)ccc1C(=O)O)c1ccc(-c2ccccc2)c(Oc2ccccc2)c1	4.92
C=CCN1C(=O)/C(=C/c2ccc(-c3cccc(C(=O)O)c3)o2)SC1=S	4.24
O=C(Nc1cc(Br)ccc1C(=O)O)c1ccc(-c2ccccc2)cc1	4.41
O=C(Nc1ccc(C(F)(F)F)cc1C(=O)O)c1ccc(-c2ccccc2)cc1	4.17
O=C(Nc1ccc(-c2ccccc2)cc1C(=O)O)c1cccc(Oc2ccccc2)c1	4.57

# input for lookup
Recall and state the measured pIC50 for O=C(Nc1ccccc1C(=O)O)c1ccc(-c2ccccc2)c(Oc2ccccc2)c1 . 4.44

====

assay_explanation: Inhibition of Escherichia coli RNA polymerase-RNA polymerase sigma factor RpoD interaction by ELISA
Catalogue of pIC50 readings, one per entry.
Note on units: pIC50 is unitless, being -log10 of a concentration expressed in mol/L.

Study these solved cases before continuing.
test_smiles	metric_name	reported_value
O=C(Nc1cc(Br)ccc1C(=O)O)c1ccc(-c2ccccc2)cc1	pIC50	4.17
O=C(Nc1ccccc1C(=O)O)c1ccc(-c2ccccc2)c(Oc2ccccc2)c1	pIC50	4.39
O=C(Nc1ccc(C(F)(F)F)cc1C(=O)O)c1ccc(-c2ccccc2)cc1	pIC50	4.22
C=CCN1C(=O)/C(=C/c2ccc(-c3cccc(C(=O)O)c3)o2)SC1=S	pIC50	4.52
O=C(Nc1cc(Cl)ccc1C(=O)O)c1ccc(-c2ccccc2)c(Oc2ccccc2)c1	pIC50	4.48
CCCN(CCC)S(=O)(=O)c1ccc(C(=O)Nc2cc3ccccc3cc2C(=O)O)cc1	pIC50	4.01

Please turn your attention to the following entry.
For the molecule O=C(Nc1ccc(-c2ccccc2)cc1C(=O)O)c1cccc(Oc2ccccc2)c1 , give its measured pIC50 value. 4.33
